tested on: M14 melanoma; assay: NCI-60 one-dose screen, 48 h; settings: 10 µM unless noted
This is part of a sample that, as a whole, favours compounds with a hit. Of some 83,000 tested, about 20% had one in any assay. The source made the active and inactive calls. How the source made its calls: active means growth percent below 10; inactive means the rest.
Possible outcomes: 1 (active), -1 (inactive)

# compound, category
data = [
    ("COc1cc(Nc2ncccc2C(=O)Nc2nc3ccc(F)cc3s2)cc(OC)c1OC", -1),
    ("C=CCOc1ccc(/C(Cl)=N/N=C(\\Cl)c2cc(OC)c(OC)c(OC)c2)cc1", -1),
    ("CCOC(=O)C1CSC(C)(C(=O)OCC)N1 (stereo not given)", -1),
    ("CC(=O)Cc1cccnc1", -1),
    ("COc1cc(NC(C)CCCN2C(=O)c3ccccc3C2=O)c2nccc(C)c2c1OC (stereo not given)", -1),
    ("O=C1C(Cl)=C(Nc2cccc3cc4ccccc4nc23)C(=O)c2ccccc21", -1),
    ("COc1cc2ncn3c(=O)c4c5c(sc4nc3c2cc1OC)CCCCC5", -1),
    ("O=C(Nc1ccc(-n2cc(-c3ccncc3)c(-c3ccc(O)c(Cl)c3)n2)cc1)Nc1ccc(Cl)c(C(F)(F)F)c1", 1),
    ("NC(=S)NNC1CCCCC1", -1),
    ("O=C(Nc1ccc(-n2cc(-c3ccncc3)c(-c3ccc(O)c(Cl)c3)n2)cc1)c1cc(C(F)(F)F)cc(C(F)(F)F)c1", -1),
    ("NC(CSC(c1ccccc1)(c1ccccc1)c1ccc(F)cc1)C(=O)O (stereo not given)", 1),
    ("CC(=O)c1ccc2c(c1)C1C=CCC1[C@H](c1cc3c(cc1Br)OCO3)N2 (stereo not given in full)", 1),
    ("NS(=O)(=O)c1ccc(Nc2nc(O)c(/C=C3\\C=Nc4ccccc43)s2)cc1", -1),
    ("CCc1c(C)c2cc3nc(NCc4ccccc4)oc3c(C)c2oc1=O", -1),
    ("CCn1cc(C(=O)O)c(=O)c2cc(F)c(N3CCN(CC(=O)Nc4ccc(C(C)=O)cc4)CC3)cc21", -1),
    ("CCOc1ccc(NC(=O)Nc2cc(C(C)C)ccc2C)cc1", -1),
    ("COc1cc2ncnc(Oc3ccc(NC(=O)Nc4ccc(C5(C#N)CCCC5)cc4)c4ccccc34)c2cc1OC", -1),
    ("OCc1cnccc1NC12CC3CC(CC(C3)C1)C2", -1),
    ("c1cncc(-c2nc3ccccc3[nH]2)c1", -1),
    ("C=C1C(=O)O[C@H]2[C@H]1CC/C(COC(=O)c1ccc(C#N)cc1)=C\\CC[C@@]1(C)O[C@@H]21", -1),
    ("COc1ccc(-c2nn(-c3cccc(Cl)c3)cc2-c2cc(-c3ccc(Br)cc3)[nH]c(=O)c2C#N)cc1", -1),
    ("O=C1CCC(=O)N1C1CCCCC1", -1),
    ("NC(CCCC(N)C(=O)c1ccccc1)C(=O)O (stereo not given)", -1),
    ("CN(C)c1ccc(/C=c2\\s/c(=C\\C(=O)C(C)(C)C)[nH]c2=O)cc1", -1),
    ("COC(=O)c1oc2c(C(C)=O)c(OCCN3CCCCC3)ccc2c1C", -1),
    ("Cc1cn(-c2nc3c(c(NCc4ccccc4)n2)COCC3)c2cccc(C(N)=O)c12", -1),
    ("COc1cc(NS(C)(=O)=O)ccc1Cc1c2ccccc2nc2ccccc12", -1),
    ("COc1ccc(-c2nn(-c3ccc(NC(=O)Nc4cc(C(F)(F)F)cc(C(F)(F)F)c4)cc3)cc2-c2ccncc2)cc1Cl", -1),
    ("C=C1C(=O)O[C@H]2[C@H]1CC/C(COC(=O)c1ccc(Cl)nc1)=C\\CC[C@@]1(C)O[C@@H]21", 1),
    ("CCN(CC)CCNCC(O)Cc1ccc(OC)cc1 (stereo not given)", -1),
]
